Every entry's value here was drawn from patent US20220025023A1.

subject of test: T1, TP-29 (also: biotinylated, site not given here)
T1 construct: also called TP-29 peptide
T1 peptide: ISVHISNAEPKHNSN
assay: indirect ELISA, biotinylated 15-mer on streptavidin plate, hybridoma supernatant
Where no end group is shown, it is not given here.

# binder, binding result
rows = [
    ("ACI-7062-412E12-Ab1 (antibody, IgG1, V domains shown, also called 412E12A2; clone 10) VH: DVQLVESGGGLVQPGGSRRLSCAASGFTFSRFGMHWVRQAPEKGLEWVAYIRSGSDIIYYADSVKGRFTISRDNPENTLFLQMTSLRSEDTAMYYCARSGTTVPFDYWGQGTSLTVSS VL: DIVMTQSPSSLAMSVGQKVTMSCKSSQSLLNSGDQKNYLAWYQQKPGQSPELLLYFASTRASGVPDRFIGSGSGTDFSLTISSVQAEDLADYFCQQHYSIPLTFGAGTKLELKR", "no binding"),
    ("ACI-7062-416A11-Ab1 (antibody, IgG2a, V domains shown, also called 416A11B3; clone 18) VH: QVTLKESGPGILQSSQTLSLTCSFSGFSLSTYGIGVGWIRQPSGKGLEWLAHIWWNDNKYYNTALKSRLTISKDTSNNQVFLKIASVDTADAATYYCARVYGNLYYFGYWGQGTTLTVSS VL: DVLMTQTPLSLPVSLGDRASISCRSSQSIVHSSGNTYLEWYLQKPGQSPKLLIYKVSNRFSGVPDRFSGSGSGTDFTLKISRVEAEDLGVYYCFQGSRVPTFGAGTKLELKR", "no binding"),
    ("ACI-7062-415C4-Ab1 (antibody, IgG1, V domains shown, also called 415C4C6; clone 14) VH: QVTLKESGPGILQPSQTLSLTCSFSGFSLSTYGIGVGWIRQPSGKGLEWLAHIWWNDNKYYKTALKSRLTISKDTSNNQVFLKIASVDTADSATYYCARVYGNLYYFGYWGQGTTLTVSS VL: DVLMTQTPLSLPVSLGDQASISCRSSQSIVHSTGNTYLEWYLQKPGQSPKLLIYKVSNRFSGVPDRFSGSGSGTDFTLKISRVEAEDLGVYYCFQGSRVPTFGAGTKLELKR", "no binding"),
]
